- experiment: recombinant barcode read abundance after kanamycin selection (control-corrected) (log10(CPM+1)); higher = more efficient recombination; sequences stand for … in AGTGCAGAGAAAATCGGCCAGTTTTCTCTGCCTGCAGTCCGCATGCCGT…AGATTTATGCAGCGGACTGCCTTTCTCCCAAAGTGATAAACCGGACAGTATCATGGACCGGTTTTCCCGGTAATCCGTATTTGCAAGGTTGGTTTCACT; site = the 11-nt target
Please respond with reported recombinant barcode read abundance (log10) for every item in the list.
Write the number on its own, no unit after it.

State, in one line, measured recombinant barcode read abundance (log10) of GATTCTACTTGGGTTCTAACCTGTTGCTT (site GATTCTACTAA)
0.0583

Give recombinant barcode read abundance (log10) for CTCCCTTCTTGGGTTCTAACCTGTTGCTT (site CTTCCTTCTAG)
0.104

For the sequence CTACCATCTTGGGTTCTAACCTGTTGCCT (site CTACCAACTAG) , give its reported recombinant barcode read abundance (log10).
0.0518

Return reported recombinant barcode read abundance (log10). Input sequence: TAGACTCCTTGGGTTCTAACCTGTTGCCA (site TAGACTCCTTG)
0.182

Please report recombinant barcode read abundance (log10) for the following sequence: GTCAATCCTTGGGTTCTAACCTGTTGCGT (site GCCACTCCTAC)
0.0762

---

- experiment: recombinant UMI read abundance after kanamycin selection (control-corrected) (log10(CPM+1)); higher = more efficient recombination; extreme values may be limits of the assay; sequences stand for … in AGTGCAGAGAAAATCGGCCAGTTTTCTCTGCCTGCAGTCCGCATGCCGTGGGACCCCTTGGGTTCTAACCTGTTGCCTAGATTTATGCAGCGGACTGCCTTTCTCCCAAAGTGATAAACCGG…AGGTTGGTTTCACT; site = the 11-nt donor
Threshold rule: recombinant UMI read abundance (log10) greater than or equal to 0.02 is MET; below that, NOT MET.

Quick check, recombinant UMI read abundance (log10) >= 0.02? ATGACTACATGGACCGGTTTTCCCGGTAATCCGTATTTGAC (site AAGACTACTGT)
MET

Please indicate if the recorded recombinant UMI read abundance (log10) for ACATCTCCATGGACCGGTTTTCCCGGTAATCCGTATTTGTG (site ACATCTTCTCA) meets or exceeds 0.02.
NOT MET

Record CCGTTCGCATGGACCGGTTTTCCCGGTAATCCGTATTTGTA (site CCGTTCGCTTA) ; criterion: recombinant UMI read abundance (log10) no lower than 0.02. Met?
MET

Entry AACCGTCCATGGACCGGTTTTCCCGGTAATCCGTATTTGGT (site AACCGTCCTAC) : is its recombinant UMI read abundance (log10) no less than 0.02?
NOT MET

Entry TGCTCACCATGGACCGGTTTTCCCGGTAATCCGTATTTGTA (site TGCTCACCTTA) : is its recombinant UMI read abundance (log10) no less than 0.02?
NOT MET

Is recombinant UMI read abundance (log10) at least 0.02? Consider AGTGGAACATGGACCGGTTTTCCCGGTAATCCGTATTTGTT (site TGTGGAACTAA)
NOT MET

Can GCTACTCCATGGACCGGTTTTCCCGGTAATCCGTATTTGCC (site GCTACTCCTGG) be said to have recombinant UMI read abundance (log10) at or above 0.02?
NOT MET

In plain terms: is recorded recombinant UMI read abundance (log10) at least 0.02 for GTTCTATCATGGACCGGTTTTCCCGGTAATCCGTATTTGGT (site GTTCTATCTAC) ?
NOT MET

---

Kindly supply the reported recombinant UMI read abundance (log10) values for the records listed here.
- experiment: recombinant UMI read abundance after kanamycin selection (control-corrected) (log10(CPM+1)); higher = more efficient recombination; extreme values may be limits of the assay; sequences stand for … in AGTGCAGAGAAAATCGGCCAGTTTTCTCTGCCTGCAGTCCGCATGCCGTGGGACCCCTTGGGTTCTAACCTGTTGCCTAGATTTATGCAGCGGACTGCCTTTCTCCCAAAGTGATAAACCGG…AGGTTGGTTTCACT; site = the 11-nt donor
Provide a numeric answer; units are not to be included.

Tell me measured recombinant UMI read abundance (log10) for AGGAACACATGGACCGGTTTTCCCGGTAATCCGTATTTGAA (site AGGAAGACTTG) please.
0

Fill in recombinant UMI read abundance (log10) for record CTGTGATCATGGACCGGTTTTCCCGGTAATCCGTATTTGAA (site CTGTGATCTTT)
2.65

Quick one: give measured recombinant UMI read abundance (log10) for TAGAATACATGGACCGGTTTTCCCGGTAATCCGTATTTGAA (site TAGAATACTTC)
0.0116

Given the sequence AAACATCCATGGACCGGTTTTCCCGGTAATCCGTATTTGAC (site ATACATCCTGT) , write its reported recombinant UMI read abundance (log10).
0

Retrieve recombinant UMI read abundance (log10) measured for CAGTCGACATGGACCGGTTTTCCCGGTAATCCGTATTTGGA (site CAGTCGACTCC) and print it.
0.0138

Consider the sequence CACTTGGCATGGACCGGTTTTCCCGGTAATCCGTATTTGGG (site CACTTGGCTCC) and give its recorded recombinant UMI read abundance (log10).
0.0801

Report recombinant UMI read abundance (log10) for GTTCCAGCATGGACCGGTTTTCCCGGTAATCCGTATTTGCA (site GTTCCAGCTTG)
1.64

Entry TCAGTAGCATGGACCGGTTTTCCCGGTAATCCGTATTTGGC (site TCAGTAGCTGC) needs its recombinant UMI read abundance (log10) filled in; supply it.
1.54

Find the measured recombinant UMI read abundance (log10) of CACTTAGCATGGACCGGTTTTCCCGGTAATCCGTATTTGGA (site CACTTTGCTTC) and report it.
0

Return reported recombinant UMI read abundance (log10). Input sequence: AAACATCCATGGACCGGTTTTCCCGGTAATCCGTATTTGAC (site ACACATCCTGT)
0

Let me know recorded recombinant UMI read abundance (log10) for ACCGAGACATGGACCGGTTTTCCCGGTAATCCGTATTTGGG (site ACCCAGACTCC) , thanks.
0.0111

Answer with the recorded recombinant UMI read abundance (log10) for the sequence listed here: CGGCTTGCATGGACCGGTTTTCCCGGTAATCCGTATTTGCC (site CGGCTTGCTGG)
0.904

Supply measured recombinant UMI read abundance (log10) of AGATAGGCATGGACCGGTTTTCCCGGTAATCCGTATTTGCT (site AGATAGGCTAG) in your reply.
2.66

Give the reported recombinant UMI read abundance (log10) for this sequence. GTGGAGACATGGACCGGTTTTCCCGGTAATCCGTATTTGTG (site GTGGAGGCTCA)
1.4

Output recombinant UMI read abundance (log10) of TAAAGTCCATGGACCGGTTTTCCCGGTAATCCGTATTTGCA (site TAAAGTCCTTC)
0.00901

Return reported recombinant UMI read abundance (log10). Input sequence: TATTAGACATGGACCGGTTTTCCCGGTAATCCGTATTTGCG (site TATTAGACTCG)
1.03

Supply measured recombinant UMI read abundance (log10) of GAAAAGTCATGGACCGGTTTTCCCGGTAATCCGTATTTGAA (site GAAAAGTCTTT) in your reply.
2.84

Let me know recorded recombinant UMI read abundance (log10) for CGAGCGACATGGACCGGTTTTCCCGGTAATCCGTATTTGTT (site CGAGCGACTAA) , thanks.
1.49

Check the records and state recombinant UMI read abundance (log10) for GTAAGAACATGGACCGGTTTTCCCGGTAATCCGTATTTGGC (site GTGAGAACTGC)
1.09

Note recombinant UMI read abundance (log10) for the sequence shown: CACGGGCCATGGACCGGTTTTCCCGGTAATCCGTATTTGTT (site CACGGGCCTAA)
0.574

Determine its reported recombinant UMI read abundance (log10): CCCATATCATGGACCGGTTTTCCCGGTAATCCGTATTTGTT (site CCCATATCTAA)
1.01

Supply recorded recombinant UMI read abundance (log10) for TAGAATCCATGGACCGGTTTTCCCGGTAATCCGTATTTGCA (site TAGAATGCTTG) here.
0

Note down recombinant UMI read abundance (log10) recorded for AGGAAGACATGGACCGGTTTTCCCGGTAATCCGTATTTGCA (site AGGAAGCCTTT)
0

Given GCGGCATCATGGACCGGTTTTCCCGGTAATCCGTATTTGTC (site GCGGCATCTGA) , respond with its recombinant UMI read abundance (log10).
2.21

Please give the documented recombinant UMI read abundance (log10) of TAGGAATCATGGACCGGTTTTCCCGGTAATCCGTATTTGTG (site TAGGAATCTCC)
2.13

Hello, please tell me recorded recombinant UMI read abundance (log10) for this one: CGTGTGGCATGGACCGGTTTTCCCGGTAATCCGTATTTGCT (site CGTTTGGCTAG)
0

Return value of recombinant UMI read abundance (log10) for input GTGCATACATGGACCGGTTTTCCCGGTAATCCGTATTTGGT (site GTGCATGCTAC) , no commentary.
0.555

Please report recombinant UMI read abundance (log10) for the following sequence: TATTGGGCATGGACCGGTTTTCCCGGTAATCCGTATTTGTG (site TATTGGGCTCA)
0.226

Read off the recorded recombinant UMI read abundance (log10) for AATGTATCATGGACCGGTTTTCCCGGTAATCCGTATTTGCT (site AATGTAGCTAG)
0

Respond only with recombinant UMI read abundance (log10) recorded for CACGGCCCATGGACCGGTTTTCCCGGTAATCCGTATTTGAT (site CACGGCCCTAG)
0

In one line, give reported recombinant UMI read abundance (log10) of the entry GTGGGTTCATGGACCGGTTTTCCCGGTAATCCGTATTTGGC (site GTGGGTTCTGC) .
2.19

In one line, give reported recombinant UMI read abundance (log10) of the entry GCAGTATCATGGACCGGTTTTCCCGGTAATCCGTATTTGCA (site TCAGTATCTTG) .
1.87

Please give the documented recombinant UMI read abundance (log10) of CCCGGTCCATGGACCGGTTTTCCCGGTAATCCGTATTTGTA (site CCCGGTCCTTC)
0.0127

Supply recombinant UMI read abundance (log10) value. Item: CGCGGCCCATGGACCGGTTTTCCCGGTAATCCGTATTTGTT (site CACGGCCCTAA)
0.167

Indicate its recorded recombinant UMI read abundance (log10); the sequence in question is GCCGGCTCATGGACCGGTTTTCCCGGTAATCCGTATTTGGA (site GCCGGCTCTTC)
0.632

Query recombinant UMI read abundance (log10) for CTTCTAACATGGACCGGTTTTCCCGGTAATCCGTATTTGGA (site CTGCTAACTTC)
0.00962
